These data points were gathered from patent US11684607B2.

Experiment: Effect of a single 2 g dose of SYM-1219 on the plasma pharmacokinetics of EE2 and NET in healthy female subjects
Type: in vivo, human
Conditions: female, human, plasma, Group B2 Period 2: SYM-1219 2 grams on Day 1, EE2/NET on Day 2; read-out: NET AUC0-t, Geometric LSMeans
PROPERTY_MEASURED: AUC(0-t) (ng·h/mL)
Number only, in ng·h/mL; omit the unit.

Notebook: C#C[C@]1(O)CC[C@H]2[C@@H]3CCC4=CC(=O)CC[C@@H]4[C@H]3CC[C@@]21C , AUC(0-t) read as 51.9

====

Assay: Single oral dose pharmacokinetics (plasma and urine) of SYM-1219 microgranule formulation in fasted healthy female subjects
Settings: female, human, urine, po, 1 gram, CLr, Geometric Mean; 1 gram single oral dose; fasted; N = 14
PROPERTY_MEASURED: CL renal
# output: number + unit

Entry Cc1ncc([N+](=O)[O-])n1CC(C)O (stereo not shown) [SYM-1219] ; CL renal = 3.65 mL/min
